assay: absolute recovery over mixed-bed multilayer solid-phase extraction; higher = better recovery; conditions: wastewater effluent; enrichment method: SPE
endpoint: absolute recovery (%)

CCC(C)C(=O)OC1CC(O)C=C2C=CC(C)C(CCC(O)CC(O)CC(=O)[O-])C21 (centres undefined) :: 94
O=C([O-])c1cn(C2CC2)c2cc(N3CC[NH2+]CC3)c(F)cc2c1=O :: 72.6
Cc1ncc([N+](=O)[O-])n1CCO :: 87.1
CCOC(=O)C1=NN(c2ccc(Cl)cc2Cl)C(C)(C(=O)OCC)C1 (centres undefined) :: 96.9
OC(Cn1cncn1)(Cn1cncn1)c1ccc(F)cc1F :: 96.9
O=C1NCCN1Cc1ccc(Cl)nc1 :: 103
Cc1ccc(C(C)NC(=O)C(NC(=O)OC(C)C)C(C)C)cc1 (centres undefined) :: 85.2
O=C([O-])C=C(F)C(F)(F)C(F)(F)C(F)(F)C(F)(F)C(F)(F)F :: 97.8
Clc1ccccc1C[NH+]1CCc2sccc2C1 :: 84.5
Nc1nnc(-c2cccc(Cl)c2Cl)c(N)n1 :: 91.1
CCCCCCCCCCCCCC[N+](C)(C)CCCCCCCCCCCCCC :: 55.3
C[NH+](C)CCOC(c1ccccc1)c1ccccc1 [Diphenhydramine] :: 91.1
Nc1ccn(C2OC(CO)C(O)C2O)c(=O)n1 (centres undefined) :: 104
C[NH2+]CC(O)c1ccc(O)c(O)c1 (centres undefined) [Epinephrine] :: 15.9
NC(=O)c1c(Cl)cccc1Cl :: 93.8
CCCc1nc2c(C)cc(-c3nc4ccccc4n3C)cc2n1Cc1ccc(-c2ccccc2C(=O)[O-])cc1 :: 88.5
CC(COc1ccccc1Cc1ccccc1)[NH+]1CCCCC1 (centres undefined) :: 93.7
CC(=O)Nc1c(I)c(C(=O)[O-])c(I)c(C(=O)NCCO)c1I :: 76
COc1ccc(C2Sc3ccccc3N(CC[NH+](C)C)C(=O)C2OC(C)=O)cc1 (centres undefined) :: 91.9

###

test: absolute recovery over mixed-bed multilayer solid-phase extraction; higher = better recovery; settings: wastewater effluent; enrichment method: SPE
Each entry below lists one item and its recorded absolute recovery value.
endpoint: absolute recovery (%)

CN(C)C(=O)Nc1ccc(Cl)c(Cl)c1 :: 92.1
CC[NH+](CC)CCNC(=O)c1cc(S(C)(=O)=O)ccc1OC :: 90.3
Nc1c(I)c(N)c(I)c(C(=O)[O-])c1I :: 68.2
c1cncc(C2CCC[NH2+]2)c1 (configuration not stated) :: 47.9
C[NH+](C)CCCC1(c2ccc(F)cc2)OCc2cc(C#N)ccc21 (configuration not stated) :: 92.4
CCNc1nc(NC(C)C)nc(OC)n1 :: 90.4
Cn1sc(Cl)cc1=O :: 66.5
CC#Cc1cc(C)nc(Nc2ccccc2)n1 :: 103
C=CCOc1ccccc1OCC(O)C[NH2+]C(C)C (configuration not stated) :: 85.9
O=C1Nc2ccc(Cl)cc2C(c2ccccc2)=NC1O (configuration not stated) :: 91.9
NC1=[NH+]CCN1Cc1ccc(Cl)nc1 :: 104
C[NH2+]C1(c2ccccc2Cl)CCCCC1=O (configuration not stated) :: 82.9
Cc1cc(Cl)ccc1OCC(=O)[O-] :: 92.7
CN(C)C(=O)NC1CCCCCCC1 :: 89.2
CCCS(=O)(=O)[O-] [1-Propanesulfonate] :: 0.9
CC(=O)Nc1ccc(S(=O)(=O)[N-]c2cc(C)on2)cc1 :: 90.7
NC(=O)N1c2ccccc2CC(=O)c2ccccc21 [Oxcarbazepin] :: 82.7
Cc1c(N(C)C)c(=O)n(-c2ccccc2)n1C [4-Dimethylaminoantipyrin (=Aminopyrin)] :: 77
C=CCC1C=C(C)CC(C)CC(OC)C2OC(O)(C(=O)C(=O)N3CCCCC3C(=O)OC(C(C)=CC3CCC(O)C(OC)C3)C(C)C(O)CC1=O)C(C)CC2OC (configuration not stated) :: 53.5
C[NH+](C)CCC(c1ccccc1)c1ccccn1 (configuration not stated) :: 91.7
COC=C(C(=O)[O-])c1ccccc1Oc1cc(Oc2ccccc2C#N)ncn1 :: 93.5
CCn1cc(C(=O)[O-])c(=O)c2cc(F)c(N3CC[NH2+]CC3)cc21 :: 74
CC[N-]S(=O)(=O)C(F)(F)C(F)(F)C(F)(F)C(F)(F)C(F)(F)C(F)(F)C(F)(F)C(F)(F)F :: 66.9
CC(C)(Oc1ccc(Cl)cc1)C(=O)[O-] :: 93.9
CSc1nc(=O)c(C(C)(C)C)n[n-]1 :: 94.4
C[NH2+]C(CC(C)C)C(=O)NC1C(=O)NC(CC(N)=O)C(=O)NC2C(=O)NC3C(=O)NC(C(=O)NC(C(=O)[O-])c4cc(O)cc(O)c4-c4cc3ccc4O)C(O)c3ccc(c(Cl)c3)Oc3cc2cc(c3OC2OC(CO)C(O)C(O)C2OC2CC(C)([NH3+])C(O)C(C)O2)Oc2ccc(cc2Cl)C1O (configuration not stated) :: 82
CC(C)CC(C[NH3+])CC(=O)[O-] (racemic) :: 2.6
CC[NH+](CC)CCNC(=O)c1cc(Cl)c(N)cc1OC :: 85.3
NC(=O)Cc1ccc(OCC(O)C[NH3+])cc1 (configuration not stated) :: 65.2
CC([NH3+])C12CC3CC(CC(C3)C1)C2 (configuration not stated) :: 72.9
C[NH2+]CC(c1ccc(OC)cc1)C1(O)CCCCC1 (configuration not stated) :: 76.2
COc1ccc2c3c1OC1C(=O)CCC4C(C2)[NH+](C)CCC314 (configuration not stated) [Hydrocodone] :: 93.1
CON=C(C(=O)OC)c1ccccc1CON=C(C)c1cccc(C(F)(F)F)c1 :: 88.9
O=[N+]([O-])N=C1NCCN1Cc1ccc(Cl)nc1 :: 95.4
Cn1ncc(N)c(Cl)c1=O :: 97
C[NH+](C)CCC=C1c2ccccc2CCc2ccccc21 :: 96.3
COC(=O)c1ccccc1S(N)(=O)=O :: 102
